# study system: human p38 kinase alpha (Homo sapiens)
# Construct: GST (N, cleaved yes); made in house; host or cells: E. coli DH10B
# assay procedure: p38 kinase in vitro assay, phosphorylation of biotinylated PHAS-I with 32P-ATP
# Assay type: biochemical
# assay context: @ 10.0 uM
measured endpoint: P38 alpha kinase % inhib @ conc. (% @)

COC(=O)[C@H](CC(C)C)NC(=O)Cn1nc(-c2ccc(F)cc2)c(-c2ccncc2)c1C [Example B-2364]	47.0

I. CCOC(=O)CC(NC(=O)Cn1nc(-c2ccc(F)cc2)c(-c2ccncc2)c1C)C(=O)OCC (stereo not shown) [Example B-2352]
II. Cc1c(-c2ccncc2)c(-c2ccc(F)cc2)nn1CC(=O)NC(C)c1cccc2ccccc12 (stereo not shown) [Example B-2331]
III. COC(=O)C(Cc1cn(C)cn1)NC(=O)Cn1nc(-c2ccc(F)cc2)c(-c2ccncc2)c1C (stereo not shown) [Example B-2361]
Endpoint returns the given compounds ordered by ascending P38 alpha kinase % inhib @ conc.. Return value: ordered labels per request.
III, I, II

----------
# study system: human p38 kinase alpha (Homo sapiens, UniProt Q16539)
# Construct: GST (N, cleaved yes); made in house; host or cells: E. coli DH10B
# Sequence (Q16539 whole entry): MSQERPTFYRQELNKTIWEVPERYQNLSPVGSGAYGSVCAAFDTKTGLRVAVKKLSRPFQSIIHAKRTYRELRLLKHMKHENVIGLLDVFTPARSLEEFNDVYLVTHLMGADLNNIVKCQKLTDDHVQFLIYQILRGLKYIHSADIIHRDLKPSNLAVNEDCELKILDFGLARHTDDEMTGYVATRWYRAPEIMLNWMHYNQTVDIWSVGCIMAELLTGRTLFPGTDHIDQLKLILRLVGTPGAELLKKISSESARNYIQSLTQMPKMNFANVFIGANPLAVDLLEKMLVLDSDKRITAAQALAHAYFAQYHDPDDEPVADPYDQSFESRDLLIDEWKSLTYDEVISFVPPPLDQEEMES
# assay procedure: p38 kinase in vitro assay, phosphorylation of biotinylated PHAS-I with 32P-ATP
# Assay type: biochemical
# assay context: in vitro P38-alpha kinase inhibition; read-out: P38 alpha kinase IC50
measured endpoint: IC50 (nM)

O=C(NC(Cc1ccccc1)c1[nH]nc(-c2ccc(F)cc2)c1-c1ccncc1)c1ccno1 (stereo not drawn) [Example B-0808]	3090

1. O=S(=O)(C=Cc1ccccc1)NC(Cc1ccccc1)c1[nH]nc(-c2ccc(F)cc2)c1-c1ccncc1 (stereo not drawn) [Example B-0710]
2. O=C(NCCc1[nH]nc(-c2ccc(F)cc2)c1-c1ccncc1)c1ccc(C(F)(F)F)cc1
So which one has the bigger IC50 here, 1 or 2 ? Respond with the label that goes with your answer.
2

----------
# study system: human p38 kinase alpha (Homo sapiens)
# Construct: GST (N, cleaved yes); made in house; host or cells: E. coli DH10B
# assay procedure: p38 kinase in vitro assay, phosphorylation of biotinylated PHAS-I with 32P-ATP
# Type: biochemical
# assay context: @ 10.0 uM
measured endpoint: P38 alpha kinase IC50, uM or % inhib @ conc. (uM): % inhib (% @)

Use the examples below as a reference point.
Cc1cccc(C)c1NC(=O)Cn1nc(-c2ccc(F)cc2)c(-c2ccncc2)c1C	83.0
Cc1c(-c2ccncc2)c(-c2ccc(F)cc2)nn1CC(=O)Nc1cccc(Br)c1	88.0
Cc1c(-c2ccncc2)c(-c2ccc(F)cc2)nn1CC(=O)N1Cc2ccsc2CC1c1ccc(Cl)cc1 (stereo not drawn)	33.0

a. CCOC(=O)c1cc(-c2ccc(NC(=O)Cn3nc(-c4ccc(F)cc4)c(-c4ccncc4)c3C)cc2)oc1C
b. COc1ccc2[nH]c3c(c2c1)CCN(C(=O)Cn1nc(-c2ccc(F)cc2)c(-c2ccncc2)c1C)C3
// task: argmin of P38 alpha kinase IC50, uM or % inhib @ conc. (uM): % inhib over [ a , b ] Respond with the label that goes with your answer.
b

----------
# study system: human p38 kinase alpha (Homo sapiens)
# Construct: GST (N, cleaved yes); made in house; host or cells: E. coli DH10B
# assay procedure: p38 kinase in vitro assay, phosphorylation of biotinylated PHAS-I with 32P-ATP
# Assay type: biochemical
# assay context: @ 10.0 uM
measured endpoint: P38 alpha kinase % inhib @ conc. (% @)

Use the examples below as a reference point.
CCN(CC)CC(C)NC(=O)Cn1nc(-c2ccc(F)cc2)c(-c2ccncc2)c1C (centres unmarked)	46.0
COC(=O)[C@H](CSCc1ccccc1)NC(=O)Cn1nc(-c2ccc(F)cc2)c(-c2ccncc2)c1C	84.0
CCOC(=O)C(Cc1ccccc1)NC(=O)Cn1nc(-c2ccc(F)cc2)c(-c2ccncc2)c1C (centres unmarked)	77.0
Cc1c(-c2ccncc2)c(-c2ccc(F)cc2)nn1CC(=O)N1CCOCC1	70.0
CCOC(=O)CC[C@H](NC(=O)Cn1nc(-c2ccc(F)cc2)c(-c2ccncc2)c1C)C(=O)OCC	45.0

A. CCCC(=O)COC(=O)NCc1[nH]nc(-c2ccc(F)cc2)c1-c1ccncc1
B. COCCN(C)C(=O)Cn1nc(-c2ccc(F)cc2)c(-c2ccncc2)c1C
// task: argmin of P38 alpha kinase % inhib @ conc. over [ A , B ] Respond with the label that goes with your answer.
B
